Test system: OVCAR-8
experimental_details: NCI tumour cell line growth inhibition, 48 h
Calls of active or inactive are those of the source. Cut-off read from the data, not from the text of the source: active = GI50 up to about 1.1 µM and inactive = higher.
Respond only with the outcome that fits, drawn from y = active, n = inactive

Example results:
[[record]]
compound = "COc1cc([N+](=O)[O-])ccc1NC(=O)c1cccc([N+](=O)[O-])c1O"
target_or_system = "OVCAR-8"
group = "n"

[[record]]
compound = "Cc1cc(C)n2c(-c3ccccc3)c(C)cc2n1"
target_or_system = "OVCAR-8"
group = "n"

[[record]]
compound = "NCC1CCCCC1.O=C(O)NCC1CCCCC1"
target_or_system = "OVCAR-8"
group = "n"

[[record]]
compound = "CCN(CC)C(=O)N1CCN(C=S)CC1"
target_or_system = "OVCAR-8"
group = "n"

[[record]]
compound = "CC[C@]12C=CCN3CCC4(c5cc([C@@]6(C(=O)OC)CC7CN(CCc8c6[nH]c6ccccc86)C[C@@H]6CCCC[C@H]76)c(OC)cc5N(C)C4[C@](O)(C(=O)OC)C1OC(C)=O)[C@@H]32 (stereo not given in full)"
target_or_system = "OVCAR-8"
group = "y"


// return assay outcome for O=C(NN1C(=O)C(Cl)C1c1ccccc1Cl)c1ccccc1O (stereo not given)
n

Hi, sorry to bother you, what did the test record for CN1CCC(O)(OC(=O)C(c2ccccc2)C2(O)CCCC2)CC1 (stereo not given) ?
n

Write down the call the test reported for this compound. Item: Cc1ccc(NC(=O)CC(=O)n2nc(-c3ccccc3)c(/N=N/c3ccc(Cl)cc3)c2-c2ccccc2)cc1
n

Outcome logged for OC1CN(OC/C=C/c2ccccc2)CC(O)C1O (stereo not given) in this assay:
n

# fetch the recorded call for Nc1nc(N)c(C2=CCN(Cc3ccccc3)CC2)c(=O)[nH]1 here
n

* * *

Test system: BT-549
experimental_details: NCI tumour cell line growth inhibition, 48 h
The source made the active and inactive calls. No stated cut-off is given here; in the data, active = GI50 up to about 1.1 µM and inactive = higher.
measured_property: GI50

Below, 5 molecules whose answers are already recorded.
[[record]]
molecule = "CSc1nc(N)c2c(-c3ccccc3)c3c(nc2n1)CCCC3"
target_or_system = "BT-549"
result = "> 100 µM (inactive)"

[[record]]
molecule = "CC(C)=CC1C(C(=O)Oc2ccccc2C(C)C)C1(C)C (configuration not stated)"
target_or_system = "BT-549"
result = "30 µM (inactive)"

[[record]]
molecule = "CC(C)C[C@H](NC(=O)[C@@H](Cc1cccc2ccccc12)NC(=O)N1CCOCC1)B(O)O"
target_or_system = "BT-549"
result = "3.99 µM (inactive)"

[[record]]
molecule = "Cc1nc(N)nc(S)c1CCCNc1ccccc1"
target_or_system = "BT-549"
result = "70 µM (inactive)"

[[record]]
molecule = "Nc1nc(N)c2c(-c3ccccc3)ccnc2n1"
target_or_system = "BT-549"
result = "> 100 µM (inactive)"


Please indicate GI50 recorded for Cc1ccnc2nc(-c3cccc(Cl)c3)cc(O)c12
1.65 µM (inactive)

Supply recorded GI50 for CC(=O)ON1C(=O)c2cccc3cccc(c23)C1=O here.
20.9 µM (inactive)

Supply GI50 value. Item: COc1cc2c(cc1OC)C(=O)N(c1ccc(OCCN3CCCC3)cc1)C2=O
> 100 µM (inactive)

Give GI50 for COc1ccc(P2(=S)Oc3ccccc3-c3ccccc3O2)cc1
> 100 µM (inactive)

Could you please provide reported GI50 for O=C(O)CC(C(=O)O)c1ccccc1[N+](=O)[O-] (configuration not stated) ? Thanks!
> 100 µM (inactive)

Using known records, supply GI50 for NCCc1ccc(S(=O)(=O)O)cc1[N+](=O)[O-]
> 100 µM (inactive)

For the molecule COc1ccc(C(C)NNC(=O)c2ccncc2)cc1OC (configuration not stated) , give its reported GI50.
> 100 µM (inactive)
